- Test system: HT29
- method.summary: Reverse Phase Protein Analysis (RPPA)
- Format: cell-based
- assay.setup: % change from DMSO (matched cell line)
quantity.name: Avg (Mcl1) (%)

Cc1cnc(Nc2ccc(F)cc2Cl)nc1-c1c[nH]c(C(=O)N[C@H](CO)c2cccc(Cl)c2)c1 [Vx-11e] | 1.36
O=C(Nc1ccc2[nH]nc(-c3ccncc3)c2c1)[C@@H]1CCN(CC(=O)N2CCN(c3ccc(-c4ncccn4)cc3)CC2)C1 [SCH772984] | 14.05
Cn1nccc1Nc1nccc(-c2ccn([C@H](CO)c3ccc(Cl)c(F)c3)c(=O)c2)n1 [GDC-0994] | 3.71
CC(C)Nc1cc(-c2c[nH]c(C(=O)N[C@H](CO)c3cccc(Cl)c3)c2)c(Cl)cn1 [BVD-523] | −2.83

----------
Entries and their Avg (MAK1 S360) values follow.
- Tested on: MIAPaCa-2
- method.summary: Reverse Phase Protein Analysis (RPPA)
- Assay type: cell-based
- assay.setup: MIAPaca2; % change from DMSO (matched cell line)
quantity.name: Avg (MAK1 S360) (%)

CC(C)Nc1cc(-c2c[nH]c(C(=O)N[C@H](CO)c3cccc(Cl)c3)c2)c(Cl)cn1 [BVD-523] | −10.72
Cc1cnc(Nc2ccc(F)cc2Cl)nc1-c1c[nH]c(C(=O)N[C@H](CO)c2cccc(Cl)c2)c1 [Vx-11e] | −0.87
O=C(Nc1ccc2[nH]nc(-c3ccncc3)c2c1)[C@@H]1CCN(CC(=O)N2CCN(c3ccc(-c4ncccn4)cc3)CC2)C1 [SCH772984] | 2.74
Cn1nccc1Nc1nccc(-c2ccn([C@H](CO)c3ccc(Cl)c(F)c3)c(=O)c2)n1 [GDC-0994] | −5.25

----------
- method.summary: Phase I study: pharmacokinetic analysis
- Type: in vivo, human
- assay.setup: human, plasma, oral, 300 mg, 300 mg BID; Day 15; read-out: Cmax ± SD
quantity.name: Cmax

CC(C)Nc1cc(-c2c[nH]c(C(=O)N[C@H](CO)c3cccc(Cl)c3)c2)c(Cl)cn1 | 586 ng/mL

----------
- Tested on: Colo205
- method.summary: Reverse Phase Protein Analysis (RPPA)
- Assay type: cell-based, human
- assay.setup: % change from DMSO (matched cell line)
Entries and their Avg(p70 S6 Kinase S371 S394) values follow.
quantity.name: Avg(p70 S6 Kinase S371 S394) (%)

Cn1nccc1Nc1nccc(-c2ccn([C@H](CO)c3ccc(Cl)c(F)c3)c(=O)c2)n1 | −13.02
Cc1cnc(Nc2ccc(F)cc2Cl)nc1-c1c[nH]c(C(=O)N[C@H](CO)c2cccc(Cl)c2)c1 [Vx-11e] | −13.64
O=C(Nc1ccc2[nH]nc(-c3ccncc3)c2c1)[C@@H]1CCN(CC(=O)N2CCN(c3ccc(-c4ncccn4)cc3)CC2)C1 | −14.59
CC(C)Nc1cc(-c2c[nH]c(C(=O)N[C@H](CO)c3cccc(Cl)c3)c2)c(Cl)cn1 | −18.11

----------
- assayed.system: ERK1 (Homo sapiens)
- Sequence (P27361 whole entry): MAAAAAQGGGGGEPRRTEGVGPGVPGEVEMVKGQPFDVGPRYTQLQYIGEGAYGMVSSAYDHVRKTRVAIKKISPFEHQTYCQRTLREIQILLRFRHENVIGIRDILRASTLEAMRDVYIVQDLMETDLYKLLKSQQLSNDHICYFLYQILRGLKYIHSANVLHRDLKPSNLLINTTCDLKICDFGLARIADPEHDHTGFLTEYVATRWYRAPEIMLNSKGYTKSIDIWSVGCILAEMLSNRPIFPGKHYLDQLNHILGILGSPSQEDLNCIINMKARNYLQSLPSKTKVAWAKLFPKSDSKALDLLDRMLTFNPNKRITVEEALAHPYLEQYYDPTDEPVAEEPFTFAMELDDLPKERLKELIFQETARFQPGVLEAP
- method.summary: biochemical
- assay.setup: Ki, ERK1
quantity.name: Ki

CC(C)Nc1cc(-c2c[nH]c(C(=O)N[C@H](CO)c3cccc(Cl)c3)c2)c(Cl)cn1 [BVD-523] | ≤ 300 pM

----------
- method.summary: Phase I study: pharmacokinetic analysis
- Assay type: in vivo, human
- assay.setup: human, plasma, oral, 150 mg, 150 mg BID; Day 15; read-out: AUC0-12
quantity.name: AUC(0-t) (ng·h/mL)

CC(C)Nc1cc(-c2c[nH]c(C(=O)N[C@H](CO)c3cccc(Cl)c3)c2)c(Cl)cn1 [BVD-523] | 2770

Hello, the source for this data is patent US20210038587A1, in case you need it.
